Molecular target: SPT (SPT2-expressing membrane fraction: human SPT1, human SPT2 and human ssSPTa) (Homo sapiens, UniProt O15269+O15270)
Construct: Full-length human SPT1, human SPT2 and human ssSPTa used; made in house; host or cells: FreeStyle 293 cells (pcDNA3.1 vectors, cotransfection); crude membrane fraction used
Sequence (O15269 whole entry): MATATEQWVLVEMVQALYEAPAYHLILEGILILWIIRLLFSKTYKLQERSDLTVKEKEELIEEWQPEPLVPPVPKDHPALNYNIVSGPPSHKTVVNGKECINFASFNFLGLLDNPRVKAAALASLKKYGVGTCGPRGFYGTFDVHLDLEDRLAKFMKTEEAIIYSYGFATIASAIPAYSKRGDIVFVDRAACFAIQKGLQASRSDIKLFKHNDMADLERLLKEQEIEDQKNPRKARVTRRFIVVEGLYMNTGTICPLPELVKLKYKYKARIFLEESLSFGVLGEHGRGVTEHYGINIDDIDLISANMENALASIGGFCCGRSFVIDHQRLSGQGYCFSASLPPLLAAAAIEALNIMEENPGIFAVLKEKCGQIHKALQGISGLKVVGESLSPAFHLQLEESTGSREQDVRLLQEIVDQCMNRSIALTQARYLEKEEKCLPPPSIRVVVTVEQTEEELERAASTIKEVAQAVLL
Sequence (O15270 whole entry): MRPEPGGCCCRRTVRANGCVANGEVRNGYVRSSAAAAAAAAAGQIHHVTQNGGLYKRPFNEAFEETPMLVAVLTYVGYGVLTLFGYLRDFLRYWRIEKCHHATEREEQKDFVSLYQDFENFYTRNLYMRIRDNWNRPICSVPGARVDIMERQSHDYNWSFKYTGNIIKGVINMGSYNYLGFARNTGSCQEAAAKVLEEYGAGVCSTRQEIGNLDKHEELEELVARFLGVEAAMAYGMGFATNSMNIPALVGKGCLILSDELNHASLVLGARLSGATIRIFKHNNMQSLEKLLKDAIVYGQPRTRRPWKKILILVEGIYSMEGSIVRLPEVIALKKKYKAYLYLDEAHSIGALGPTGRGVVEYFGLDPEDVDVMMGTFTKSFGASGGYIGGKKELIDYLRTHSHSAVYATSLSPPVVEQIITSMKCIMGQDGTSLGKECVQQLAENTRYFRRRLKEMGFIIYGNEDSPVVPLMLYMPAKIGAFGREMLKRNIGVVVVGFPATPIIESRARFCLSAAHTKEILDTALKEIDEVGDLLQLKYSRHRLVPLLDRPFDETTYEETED
Sequence (Q969W0 whole entry partner): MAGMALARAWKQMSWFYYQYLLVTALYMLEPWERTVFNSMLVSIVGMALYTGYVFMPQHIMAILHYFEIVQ
Experiment: SPT enzyme inhibition test (Test Example 1)
Assay type: biochemical
Conditions: read-out: Rate of inhibition (%) at 1 μM

[
  {
    "compound": "CCn1ncc2c1C(NC(=O)c1ccc(Cl)cc1C(F)(F)F)CCN2C(=O)c1cnc(OC)c(OC)c1 (centres unmarked) [Example 153A]",
    "inhibition at 1 µM, %": 101
  },
  {
    "compound": "O=C(N[C@@H]1CCN(C(=O)c2cc(Cl)c3nccnc3c2)C[C@@H]1c1ccccc1)c1ncccc1Cl [Example 246B]",
    "inhibition at 1 µM, %": 101
  },
  {
    "compound": "Cc1cc(C(=O)N2CC[C@@H](NC(=O)c3ncccc3C(F)(F)F)[C@@H](c3ccccc3)C2)cc2nccnc12 [Example 74B]",
    "inhibition at 1 µM, %": 100
  },
  {
    "compound": "COc1cc(C(=O)N2CC[C@@H](NC(=O)c3ncccc3C(F)(F)F)[C@@H](c3ccc(F)cc3)C2)cnc1OC [Example 191B]",
    "inhibition at 1 µM, %": 100
  },
  {
    "compound": "COc1cc(C(=O)N2CC[C@@H](NC(=O)c3ncccc3C(F)(F)F)[C@@H](c3ccccc3)C2)cnc1OC [Example 64B]",
    "inhibition at 1 µM, %": 100
  },
  {
    "compound": "Cc1nn(C)c(Cl)c1C(=O)N[C@@H]1CCN(C(=O)c2cc(Cl)c3nccnc3c2)C[C@@H]1c1ccccc1 [Example 166B]",
    "inhibition at 1 µM, %": 101
  },
  {
    "compound": "COc1cc(C(=O)N2CCC(NC(=O)c3ccccc3OC(F)(F)F)c3c2cnn3C)cnc1OC (centres unmarked) [Example 133A]",
    "inhibition at 1 µM, %": 101
  },
  {
    "compound": "COc1ccc(C(=O)N2CCC(NC(=O)c3ccccc3Cl)c3nscc32)cc1OC (centres unmarked) [Example 30A]",
    "inhibition at 1 µM, %": 93
  },
  {
    "compound": "COc1cc(C(=O)N2CC[C@@H](NC(=O)c3ccccc3OC(F)(F)F)[C@H](n3cccn3)C2)cnc1OC (relative stereo) [Example 276B]",
    "inhibition at 1 µM, %": 82
  },
  {
    "compound": "COc1ccc(C(=O)N2CCC(NC(=O)c3ccccc3Cl)c3c(C)nn(C)c32)cc1OC (centres unmarked) [Example 172A]",
    "inhibition at 1 µM, %": 93
  },
  {
    "compound": "COc1ccc(C(=O)N2CC[C@@H](NC(=O)c3ccccc3Cl)[C@H](c3sccc3C)C2)cc1OC (relative stereo) [Example 270B]",
    "inhibition at 1 µM, %": 89
  }
]

Recorded values, source patent US10189785B2.
